Tested on: ATP;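 also: ATP exposure 15 min at 22 °C before imaging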
Assay: switch fluorescence ratio, 500 uM ATP over buffer (Cy3 cluster intensity, sum of 5 cycles each) (fold (ratio)); higher = stronger signal-on switching upon ATP binding; sequences stand for … in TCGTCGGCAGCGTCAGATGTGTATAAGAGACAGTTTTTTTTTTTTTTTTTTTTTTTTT…TC
Conditions: aptamer strand: ATP DNA aptamer (quencher-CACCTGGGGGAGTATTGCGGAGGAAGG + anchor), 100 nM annealed; ATP concentration: 500 uM
switch fluorescence ratio for assorted sequences
value.kind: switch fluorescence ratio

In [3]: df
Out[3]:
    sequence_text                 value_kind  result
 0     ATGGGAAAAA  switch fluorescence ratio    1.01
 1     AAATTAGGCG  switch fluorescence ratio   0.975
 2     TAGCTGGAGG  switch fluorescence ratio   0.998
 3     ATTTAGTGGT  switch fluorescence ratio       1
 4     TGAAGTATGG  switch fluorescence ratio   0.952
 5     AAGGCAGATC  switch fluorescence ratio    1.05
 6     GAAAGAGAGT  switch fluorescence ratio   0.987
 7     AAATGTGTCT  switch fluorescence ratio    1.01
 8     CTGCATCAGT  switch fluorescence ratio    1.04
 9     GGCGTCCTCT  switch fluorescence ratio    1.05
10     TTTAGATCAA  switch fluorescence ratio       1
11     TCAATATGTT  switch fluorescence ratio       1
12     CCGATTGGTC  switch fluorescence ratio    1.12
13     ATAAGATTTT  switch fluorescence ratio    1.01
14     GATTAGAGGG  switch fluorescence ratio   0.988
15     GGCGAGGTGT  switch fluorescence ratio       1

###

Test system: ATP;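 also: ATP exposure 15 min at 22 °C before imaging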
Test: switch fluorescence ratio, 500 uM ATP over buffer (Cy3 cluster intensity, sum of 5 cycles each) (fold (ratio)); higher = stronger signal-on switching upon ATP binding; sequences stand for … in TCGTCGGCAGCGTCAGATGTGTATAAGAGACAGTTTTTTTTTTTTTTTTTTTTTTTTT…TC
Details: aptamer strand: ATP DNA aptamer (quencher-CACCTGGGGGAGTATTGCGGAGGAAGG + anchor), 100 nM annealed; ATP concentration: 500 uM
In this section, each of the sequences is paired with its reported switch fluorescence ratio.
value.kind: switch fluorescence ratio

In [3]: df
Out[3]:
    sequence_text                 value_kind  numeric_readout
 0     TTATGATAGG  switch fluorescence ratio             1.02
 1     CAACGGGTTT  switch fluorescence ratio            0.997
 2     AAGGTTATGC  switch fluorescence ratio            0.987
 3     TATACTATGG  switch fluorescence ratio             1.01
 4     AAAGTGGGCG  switch fluorescence ratio             1.13
 5     TTAAAAACTG  switch fluorescence ratio            0.992
 6     ATGATAGTAA  switch fluorescence ratio             1.01
 7     TTTTCCAAGG  switch fluorescence ratio             1.06
 8     TGGGTTATGC  switch fluorescence ratio            0.984
 9     TCGGTTGTCT  switch fluorescence ratio             1.02
10     GGATGCAATG  switch fluorescence ratio             1.16
11     ATGGTAGTGC  switch fluorescence ratio            0.986
12     AGGGGAAGAA  switch fluorescence ratio                1
13      AGACGCTTG  switch fluorescence ratio            0.996
14     ACGTACTTGA  switch fluorescence ratio             1.52
15     CGATGGGGGC  switch fluorescence ratio            0.957
16     AATGGGAAGT  switch fluorescence ratio            0.991
17     CTCGTAATCT  switch fluorescence ratio             1.57
18     AAGGGCTGCG  switch fluorescence ratio             0.98
19     ACATTGGGGC  switch fluorescence ratio            0.978
20     AAGGATGAGG  switch fluorescence ratio            0.987
21     AATCTCATAG  switch fluorescence ratio             1.01

###

Overview of reported switch fluorescence ratio across a group of sequences:
System: ATP;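 also: ATP exposure 15 min at 22 °C before imaging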
Assay: switch fluorescence ratio, 500 uM ATP over buffer (Cy3 cluster intensity, sum of 5 cycles each) (fold (ratio)); higher = stronger signal-on switching upon ATP binding; sequences stand for … in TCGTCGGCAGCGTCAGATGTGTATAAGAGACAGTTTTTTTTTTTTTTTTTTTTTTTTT…TC
Conditions: aptamer strand: ATP DNA aptamer (quencher-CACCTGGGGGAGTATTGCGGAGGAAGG + anchor), 100 nM annealed; ATP concentration: 500 uM
value.kind: switch fluorescence ratio

    sequence_text  target_system  numeric_readout
 0     GTGCTTACGA            ATP             1.07
 1     TTTGGAATAG            ATP             1.06
 2     ATAACGTACT            ATP             1.84
 3     AATCCTTGAG            ATP             1.02
 4     TTTTGTTTGT            ATP             1.01
 5     TGTAGAGCCA            ATP             1.03
 6     ACATTGGAGG            ATP            0.986
 7     CAAATTTAAG            ATP            0.982
 8     TACGAGGGGA            ATP             1.03
 9     TAAATAATTG            ATP             1.01
10     ACGGAGTTAC            ATP             1.84
11     AGGACAGCAT            ATP             1.07
12     GAGGTACTTT            ATP            0.993
13     AGGGTAATCG            ATP             1.02
14     GGGGATACTG            ATP             1.31
15     CGGTGATATT            ATP             1.03
16     CTCTATCAAT            ATP             1.25
17     TTTACGTGCA            ATP             1.04
18     TTCGGGAATT            ATP              1.1
19     GTCGGTCTGG            ATP                1
20     TCGGAAAGGG            ATP            0.996
21     GGTCTACTTG            ATP            0.984
22     TGACGGCCTG            ATP             1.06
23     AGGCCTGAAA            ATP            0.983
24     GTAAAGGGCG            ATP            0.973
25     TTTTGGACGC            ATP             1.26
26     CATAGCCTAA            ATP             1.01

###

System: ATP;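 also: ATP exposure 15 min at 22 °C before imaging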
Assay: switch fluorescence ratio, 500 uM ATP over buffer (Cy3 cluster intensity, sum of 5 cycles each) (fold (ratio)); higher = stronger signal-on switching upon ATP binding; sequences stand for … in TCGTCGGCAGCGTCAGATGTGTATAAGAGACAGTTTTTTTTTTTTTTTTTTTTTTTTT…TC
Details: aptamer strand: ATP DNA aptamer (quencher-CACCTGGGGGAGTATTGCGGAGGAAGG + anchor), 100 nM annealed; ATP concentration: 500 uM
A collection of sequences and their measured switch fluorescence ratio
value.kind: switch fluorescence ratio

>>> print(df.to_string())
   sequence_text                 value_kind  numeric_readout
0     GGATGGCGGT  switch fluorescence ratio            0.985
1     GCGGGGGGTC  switch fluorescence ratio             1.06
2     ATATACGAGT  switch fluorescence ratio                1
3     GGGATTTTGA  switch fluorescence ratio            0.999
4     CGGGGTCAGT  switch fluorescence ratio             1.02
5     TCCCGCTTGT  switch fluorescence ratio             1.17
